Source of measurements: patent US20100168084A1

- measured_on: sirtuin protein (Homo sapiens, UniProt Q96EB6)
- Sequence (Q96EB6 2-747 limits assumed): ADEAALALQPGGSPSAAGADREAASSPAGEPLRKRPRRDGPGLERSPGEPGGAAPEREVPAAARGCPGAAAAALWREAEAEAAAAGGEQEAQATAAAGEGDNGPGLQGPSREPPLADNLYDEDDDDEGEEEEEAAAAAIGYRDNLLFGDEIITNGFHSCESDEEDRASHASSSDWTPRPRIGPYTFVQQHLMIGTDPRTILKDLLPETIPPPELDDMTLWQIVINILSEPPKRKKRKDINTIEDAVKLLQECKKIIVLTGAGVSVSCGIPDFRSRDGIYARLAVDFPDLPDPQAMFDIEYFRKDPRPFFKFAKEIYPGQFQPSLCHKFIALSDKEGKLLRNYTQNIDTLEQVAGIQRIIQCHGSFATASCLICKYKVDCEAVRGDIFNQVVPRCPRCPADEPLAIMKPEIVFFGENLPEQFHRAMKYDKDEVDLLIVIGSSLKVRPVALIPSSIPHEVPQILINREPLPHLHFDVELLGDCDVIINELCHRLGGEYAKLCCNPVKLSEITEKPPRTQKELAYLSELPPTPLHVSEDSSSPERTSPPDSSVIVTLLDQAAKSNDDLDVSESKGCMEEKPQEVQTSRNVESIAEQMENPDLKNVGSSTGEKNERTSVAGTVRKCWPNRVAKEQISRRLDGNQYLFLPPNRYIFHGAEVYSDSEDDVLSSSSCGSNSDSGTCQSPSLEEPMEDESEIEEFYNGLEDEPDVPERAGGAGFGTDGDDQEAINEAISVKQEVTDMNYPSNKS
- experimental_details: MS assay (IC50 MS ASSAY / ED50 MS / FOLD ACTIVATION MS)
- Format: biochemical
- Parameters: scale not given here
- applied_conditions: Table 4
readout_name: ED50 MS ASSAY

Illustrative cases are given below, each with its answer.
molecule: CN(C)c1cccc(C(=O)Nc2ccccc2-c2nc3cnccc3o2)c1 [Compound 406]
ED50 MS ASSAY: A′
//
molecule: O=C(Nc1ccccc1-c1nc2ccc(CN3CCNCC3)nc2s1)c1ccc2ccccc2n1 [Compound 729]
ED50 MS ASSAY: A′
//
molecule: Cc1csc2nc(-c3ccccc3NC(=O)c3cnc4ccccc4n3)cn12 [Compound 707]
ED50 MS ASSAY: A′
//
molecule: COc1cc(C(=O)Nc2ccccc2-c2nc3ccccc3[nH]2)cc(OC)c1OC [Compound 293]
ED50 MS ASSAY: A′
//
molecule: O=C(Nc1ccccc1-c1cn2c(CN3CCCCC3)csc2n1)c1cnc2ccccc2n1 [Compound 618]
ED50 MS ASSAY: A′
//
molecule: COc1cc(C(=O)Nc2ccccc2-c2cn3cc(CN4CCNCC4)sc3n2)cc(OC)c1OC [Compound 271]
ED50 MS ASSAY: A′
//
molecule: COc1ccc(C(=O)Nc2ccc(-c3nc4cnccc4s3)s2)c(OC)c1 [Compound 515]
ED50 MS ASSAY: A′
//
molecule: O=C(Nc1ccccc1-c1cn2c(CN3CCNCC3)csc2n1)c1cnc2ccccc2n1 [Compound 441]
ED50 MS ASSAY: A′
//
molecule: O=C(Nc1ccccc1-c1nc2cc(CN3CCOCC3)cnc2s1)c1ccc2ccccc2n1 [Compound 724]
ED50 MS ASSAY: A′
//
molecule: CN(C)c1ccc(C(=O)Nc2ccccc2-c2nc3cnccc3s2)cc1 [Compound 320]
ED50 MS ASSAY: A′

The reported sirtuin protein (Homo sapiens, UniProt Q96EB6) ED50 MS ASSAY of COc1cc(C(=O)Nc2cccc(-c3cn4cccnc4n3)c2)cc(OC)c1OC [Compound 218] is A′

The reported sirtuin protein (Homo sapiens, UniProt Q96EB6) ED50 MS ASSAY of CN(C)CCOCc1csc2nc(-c3ccccc3NC(=O)c3cnc4ccccc4n3)cn12 [Compound 647] is A′

The reported sirtuin protein (Homo sapiens, UniProt Q96EB6) ED50 MS ASSAY of Cc1ccc(C(=O)Nc2ccccc2-c2nc3ccc(CN4CCNCC4)nc3s2)cc1C [Compound 727] is A′

The reported sirtuin protein (Homo sapiens, UniProt Q96EB6) ED50 MS ASSAY of O=C(Nc1ccccc1-c1nc2ccccc2[nH]1)c1cnc2ccccc2n1 [Compound 508] is A′

The reported sirtuin protein (Homo sapiens, UniProt Q96EB6) ED50 MS ASSAY of CN1CCN(C(=O)Cc2csc3nc(-c4ccccc4NC(=O)c4cnc5ccccc5n4)cn23)CC1 [Compound 649] is A′

The reported sirtuin protein (Homo sapiens, UniProt Q96EB6) ED50 MS ASSAY of COc1ccc(C(=O)Nc2ccccc2-c2nc3cccnc3[nH]2)cc1C(F)(F)F [Compound 528] is A′

The reported sirtuin protein (Homo sapiens, UniProt Q96EB6) ED50 MS ASSAY of COc1ccc(C(=O)Nc2cccc(-c3cc4cccnc4o3)c2)c(OC)c1 [Compound 191] is A′
